Target: human ATP Binding Cassette Subfamily C Member 1 (ABCC1) (UniProt P33527 1-1531)
Test: FACS titration on H69AR cells

binder | output.unit | Kd
C1.309 (antibody, V domains shown) VH: QVQLKESGPGLVAPSQSLSITCTVSGFSLTSYDITWIRQPPGKGLEWLGVIWTGGGTNYNSAFMSRLSISKDSSKSQVFLKMNSLRTDDTAIYYCVRDLRYGYDGFWYFDVWGAGTTVTVSS VL: DVVMTQTPLSLPVSLGDQASISCRSSQSIVHSNGNTYLEWYLQKPGQSPKLLIYKVSNRFSGVPDRFSGSGTGTDFTLKISRVEAEDLGVYYCFQGSHVPRTFGGGTKLEIK | nM | 10
C1.779B (antibody, V domains shown) VH: EVKLLESGPGLVQPSQTLSLTCTVSGFSLTSNGVIWVRQPPGKGLEWIAAISSGGNIYYNSGLKSRLGISRDTSKSQVFLKMNSLQTEDTAIYFCTRARGTTTAYFMDAWGQGASVTVSS VL: ETVMTQSPSSLAVSAGETVTMNCKSSQSLLYSGNQKNYLAWYQQKPGQSPKLLIYWASTRQSGVPDRFIGSGSGTDFTLTISSVQAEDLAIYYCQQYYDTLMKMFGAGTKLEIK | nM | 10.1
C1.786a (antibody, V domains shown) VH: EVQLTESGLGLVQPSQTLSLTCSVSGFSLTSYNVHWVRQPTGKGLEWMGVIWTGGYTDSNSPLKSRLSITRDTSKSQVFLKMNSLQSEDIATYYCARERHTMGITKSWYFDYWGQGVMVTVSS VL: DVQMTQSPASLSASLGETISIECLASEGIFSYLAWYQQKPGKSPQLLIYGANTLQAGVPSRFSGSGSGTQYSLKISSMQPEDEGDYFCQQSYKFPVTFGSGTKLELK | nM | 8.3
C1.505 (antibody, V domains shown) VH: EVQLTESGPGLVQPSQTLSLTCTVSGFSLTSNGVSWVRLPPGKGLEWIAAISSGGNIYYNSALKSRLSISRDTSKSQVFLKMNSLQTEDTAIYFCTRERGWNYPGITNGYYFDYWGQGASVTVSS VL: DIVLTQSPSLLSASVGDRVILSCKAGQKINNYLAWYQQKLGEAPKLLIYNANSLQTGIPSRFSGSGSGTDYTLTISSLQPEDVATYFCQQYNSWYTFGAGTKLEIK | nM | 7.1
C1.773a (antibody, V domains shown) VH: EVQLKESGPGLVQPSQTLSLTCTVSGFSLTSNGVSWVRQPPGKGLEWIAAISSGGSIYYNSAFKSRLSISRHTSKSQVLLKMNSLQTEDTAMYFCARHRGYYGYNWGYFDYWGQGASVTVSS VL: NIQLTQSPSLLSASVGDRVTLSCKGSQNINNYLAWYQQKLGEAPKLLIYKTNSLQTGIPSRFSGSGSGTDYTLTISSLHSEDLATYYCSQYNNGYTFGAGTKLEIK | nM | 3.2
